Values compiled from patent US11708344B2.

# assay.protocol: Human microsome stability assay
# Type: in vitro ADME
# measurement.conditions: human liver microsomes, 1 μM test compound, 0.5 mg/mL microsomal protein, 37° C., pH 7.4, 0-30 minutes
quantity: Clearance of Human microsome
Please state the number and follow it with the unit.

>>> test_value("O=C(O)CC1(COc2cc(Br)ccc2-c2cc(=O)c3cccc(Cl)c3o2)CC1")
"6.15 mL/min/kg"
>>> test_value("COc1cc(OC2CC(C(=O)NS(C)(=O)=O)C2)c(-c2cc(=O)c3cccc(Cl)c3o2)cc1OC (stereo not shown)")
"6.15 mL/min/kg"
>>> test_value("CCOc1ccc(-c2cc(=O)c3c(C(F)(F)F)ccc(Cl)c3o2)c(OCCO[C@H]2C[C@@H](C(=O)O)C2)c1")
"9.62 mL/min/kg"

Here is the next item to consider.
Asked: Consider the molecule O=c1cc(-c2ccc(F)cc2OCCO[C@H]2C[C@H](C(=O)O)C2)oc2c(Cl)cc(F)cc12 and give its measured Clearance of Human microsome.
Given back: 9.43 mL/min/kg

====

This listing pairs molecules with measured pIC50.
# Test system: HBsAg in HBV-infected PHH
# assay.protocol: Cryopreserved primary human hepatocytes (PHH) HBV infection assay, extracellular HBsAg (CLIA)
# Format: cell-based
# measurement.conditions: Hepatitis B virus, Hepatocyte, 216 h, read-out: HBsAg IC50, Cryopreserved PHH infected with HBV, 9 days post-compound treatment, extracellular HBsAg
The value called pIC50 is obtained by taking minus log10 of the concentration in mol/L.

>>> test_value("COc1cc(-c2cc(=O)c3cccc(Cl)c3o2)c(OCCO[C@H]2C[C@@H](C(=O)O)C2)cc1OC(F)F")
5.06
>>> test_value("COc1cc(OCCO[C@H]2C[C@@H](C(=O)O)C2)c(-c2cc(=O)c3cccc(Cl)c3o2)cc1OCC1CC1")
5.02
>>> test_value("O=c1cc(-c2ccccc2O[C@H]2C[C@@H](C(=O)O)C2)oc2c(Cl)cccc12")
5.69
>>> test_value("O=c1cc(-c2cc(F)ccc2OCCO[C@H]2C[C@@H](C(=O)O)C2)oc2c(Cl)cccc12")
5.71
>>> test_value("O=C(O)C1CCC(Oc2cc(Br)ccc2-c2cc(=O)c3cccc(Cl)c3o2)CC1 (stereo not drawn)")
5.15
>>> test_value("CS(=O)(=O)NC(=O)[C@H]1C[C@@H](OCCOc2cc(Br)ccc2-c2cc(=O)c3cccc(Cl)c3o2)C1")
5.32

Here is the next item to consider.
Asked: Consider the molecule Cc1cc(-c2cc(=O)c3cccc(Cl)c3o2)c(OCCCC(=O)O)cc1Br and give its measured pIC50.
Given back: 5.38

====

# assay.protocol: Human microsome stability assay
# Format: in vitro ADME
# measurement.conditions: human liver microsomes, 1 μM test compound, 0.5 mg/mL microsomal protein, 37° C., pH 7.4, 0-30 minutes
This listing pairs molecules with measured Clearance of Human microsome.
Unit mL/min/kg implied. Number only.

>>> test_value("O=c1cc(-c2cc3c(cc2OCCO[C@H]2C[C@@H](C(=O)O)C2)OCCO3)oc2c(Cl)cccc12 [Example C074]")
6.15
>>> test_value("CCOc1cc(OCCO[C@H]2C[C@@H](C(=O)O)C2)c(-c2cc(=O)c3cccc(Cl)c3o2)cc1OCC [Example C088]")
6.15

Asked: Consider the molecule O=c1cc(-c2cccc(Br)c2OCCO[C@H]2C[C@@H](C(=O)O)C2)oc2c(Cl)cc(F)cc12 [Example C070] and give its measured Clearance of Human microsome.
Given back: 9.42

Asked: Request: CCOc1ccc(-c2cc(=O)c3cccc(Cl)c3o2)c(OCCO[C@H]2C[C@H](C(=O)O)C2)c1 [Example C035-B]
Given back: 9.78

====

This listing pairs molecules with measured pIC50.
# System: HBsAg in HBV-infected PHH
# assay.protocol: Cryopreserved primary human hepatocytes (PHH) HBV infection assay, extracellular HBsAg (CLIA)
# Assay type: cell-based
# measurement.conditions: Hepatitis B virus, Hepatocyte, 216 h, read-out: HBsAg IC50, Cryopreserved PHH infected with HBV, 9 days post-compound treatment, extracellular HBsAg
The value called pIC50 is obtained by taking minus log10 of the concentration in mol/L.

Asked: Consider the molecule COc1cc(OCCO[C@H]2C[C@@H](C(=O)O)C2)c(-c2cc(=O)c3cccc(Cl)c3o2)cc1C [Example C041-A] and give its measured pIC50.
Given back: 5.23

Asked: Request: O=c1cc(-c2ccc(C(F)(F)F)cc2OCCO[C@H]2C[C@@H](C(=O)O)C2)oc2c(Cl)cccc12 [Example C026]
Given back: 5.05

Asked: Request: COC(=O)CCOc1cc(C(F)(F)F)ccc1-c1cc(=O)c2cccc(Cl)c2o1 [Example A002]
Given back: 5.74

Asked: Request: Cc1cc(-c2cc(=O)c3cccc(Cl)c3o2)c(OCCC(=O)O)cc1C(F)(F)F [Example A044]
Given back: 5.75

====

# System: HBsAg in HBV-infected PHH
# assay.protocol: Cryopreserved primary human hepatocytes (PHH) HBV infection assay, extracellular HBsAg (CLIA)
# Type: cell-based
# measurement.conditions: Hepatitis B virus, Hepatocyte, 216 h, read-out: HBsAg IC50, Cryopreserved PHH infected with HBV, 9 days post-compound treatment, extracellular HBsAg
This listing pairs molecules with measured IC50.
Please state the number and follow it with the unit.

>>> test_value("CC(CC(=O)O)OC(=O)CC(C)Oc1cc(C(F)(F)F)ccc1-c1cc(=O)c2cccc(Cl)c2o1 (stereo not drawn)")
"7.94 µM"
>>> test_value("Cc1ccc(-c2cc(=O)c3cccc(Cl)c3o2)c(OCCC(=O)O)c1")
"1.91 µM"
>>> test_value("CCOc1cc(-c2cc(=O)c3cccc(Cl)c3o2)c(OCCO[C@H]2C[C@@H](C(=O)O)C2)cc1OC")
"5.21 µM"
>>> test_value("COc1cc(OCCC(=O)O)c(-c2cc(=O)c3cccc(Cl)c3o2)cc1OC")
"3 µM"
>>> test_value("Cc1cc(-c2cc(=O)c3cccc(Cl)c3o2)c(OCCCOCC(=O)O)cc1Br")
"8.5 µM"

Asked: Request body: readout IC50, system HBsAg in HBV-infected PHH, query O=c1cc(-c2ccc(C(F)(F)F)cc2O[C@H]2C[C@H](C(=O)NS(=O)(=O)C3CC3)C2)oc2c(Cl)cccc12 . Return the value.
Given back: 3.7 µM

Asked: Request: Cc1ccc(-c2cc(=O)c3cccc(Br)c3o2)c(OCCCOCC(=O)O)c1
Given back: 2.94 µM

Asked: Request: COc1cc(O[C@H]2C[C@H](C(=O)NS(C)(=O)=O)C2)c(-c2cc(=O)c3cccc(Cl)c3o2)cc1Br
Given back: 4 µM

====

# System: HBsAg in HBV-infected PHH
# assay.protocol: Cryopreserved primary human hepatocytes (PHH) HBV infection assay, extracellular HBsAg (CLIA)
# Type: cell-based
# measurement.conditions: Hepatitis B virus, Hepatocyte, 216 h, read-out: HBsAg IC50, Cryopreserved PHH infected with HBV, 9 days post-compound treatment, extracellular HBsAg
# Method: This assay is used to confirm the anti-HBV effect of the compounds in HBV PHH infection assay. […] At 9 days post-compound treatment, extracellular HBsAg level were measured with Chemiluminescence Immuno Assay (CLIA) kit (Autobio, HBsAg Quantitative CLIA). Extracellular HBV DNA was extracted by MagNA Pure 96 system (Roche) and then determined by quantitative PCR with the following primers and probe: […]
quantity: IC50 (µM)
Unit µM implied. Number only.

The following molecules have reported results that may help.
>>> test_value("O=C(O)C1CC(OCCCOc2cc(C(F)(F)F)ccc2-c2cc(=O)c3cccc(Cl)c3o2)C1 (centres unmarked)")
7.56
>>> test_value("O=c1cc(-c2cc3c(cc2OCCO[C@H]2C[C@@H](C(=O)O)C2)OCO3)oc2c(Cl)cccc12")
8.67
>>> test_value("Cc1ccc(-c2cc(=O)c3cccc(Cl)c3o2)c(O[C@H]2C[C@@H](C(=O)O)C2)c1")
0.887
>>> test_value("Cc1cc(-c2cc(=O)c3cccc(Cl)c3o2)c(OCC(=O)N2C[C@@H](O)[C@@H](O)C2)cc1Br")
9.35
>>> test_value("CN(C)S(=O)(=O)CCCOc1cc(Br)ccc1-c1cc(=O)c2cccc(Cl)c2o1")
4.95

Asked: Request body: readout IC50, system HBsAg in HBV-infected PHH, query O=c1cc(-c2ccccc2OC[C@H]2C[C@H](C(=O)O)C2)oc2c(Cl)cccc12 . Return the value.
Given back: 3.19

Asked: Request: O=c1cc(-c2ccccc2O[C@H]2C[C@H](C(=O)O)C2)oc2c(Cl)cccc12
Given back: 3.35

Asked: Request: O=c1cc(-c2ccccc2OC[C@H]2C[C@@H](C(=O)O)C2)oc2c(Cl)cccc12
Given back: 4.97

Asked: Request: O=C(O)[C@@H]1C[C@H](Oc2cc(Br)ccc2-c2cc(=O)c3cccc(Cl)c3o2)CN1S(=O)(=O)C1CC1
Given back: 3.24

Asked: Request: O=c1cc(-c2ccccc2OCCO[C@H]2C[C@@H](C(=O)O)C2)oc2c(Cl)cc(F)cc12
Given back: 2.42

Asked: Request: Cc1cc(-c2cc(=O)c3cccc(Cl)c3o2)c(OCCO[C@H]2C[C@@H](C(=O)O)C2)cc1Br
Given back: 1.16

Asked: Request: Cc1ccc(-c2cc(=O)c3cccc(Cl)c3o2)c(O[C@H]2C[C@@H](C(=O)NS(C)(=O)=O)C2)c1
Given back: 3.21

Asked: Request: CS(=O)(=O)NC(=O)COCCOc1cc(C(F)(F)F)ccc1-c1cc(=O)c2cccc(Cl)c2o1
Given back: 4.12
